System: SK-MEL-2
Experiment: NCI tumour cell line growth inhibition, 48 h
The source made the active and inactive calls. No stated cut-off is given here; in the data, active = GI50 up to about 1.1 µM and inactive = higher.
Field 'call' accepts active, inactive

The following compounds have reported results that may help.
| Compound | Classification |
| --- | --- |
| Cn1c(COC(=O)Nc2ccccc2)c(COC(=O)Nc2ccccc2)c2ccc3cc(Cl)c(Cl)cc3c21 | inactive |
| COC(=O)[C@]1(C)CCC[C@]2(C)[C@H]3CC[C@]4(C(C)C)OO[C@@H](O4)[C@]34O[C@@H]4C[C@H]21 | inactive |
| NS(=O)(=O)c1ccc(NC(=S)NC=C2C(=O)c3ccccc3C2=O)cc1 | inactive |

q: I would be grateful if you could indicate the recorded call for `C[C@@H]1OC(=O)C[C@H]2CC(=O)N(CCc3cn(S(=O)(=O)C(F)(F)F)c4ccccc34)C[C@@H]21` .
a: inactive

q: I would be grateful if you could indicate the recorded call for CC1CC[C@@]2(OC1)OC1C[C@H]3[C@@H]4CCC5CC(O)CC[C@]5(C)[C@H]4C/C(=N\N(C)C)[C@]3(C)C1[C@@H]2C (stereo partly drawn) .
a: inactive

---

Test system: UACC-62
Experiment: NCI tumour cell line growth inhibition, 48 h
Calls of active or inactive are those of the source. Cut-off read from the data, not from the text of the source: active = GI50 up to about 1.1 µM and inactive = higher.
Measured Property: GI50

| Molecule | Observed |
| --- | --- |
| CC1CC[C@@]2(OC1)OC1C[C@H]3[C@@H]4CCC5CC(O)CC[C@]5(C)[C@H]4C/C(=N\N(C)C)[C@]3(C)C1[C@@H]2C (stereo not given in full) | 27.6 µM (inactive) |
| COc1ccc(-n2c(C)nc3ccc(NC4OC(CO)C(O)C(O)C4O)cc3c2=O)cc1 (stereo not given) | > 100 µM (inactive) |
| NC1(C(=O)O)CCc2ccc(N(CCCl)CCCl)cc2C1 (stereo not given) | 22.5 µM (inactive) |

q: Identify measured GI50 associated with OCC1OC(n2nc(-c3ccccc3)nc2-c2cnccn2)C(O)C1O (stereo not given)
a: > 100 µM (inactive)

q: Identify measured GI50 associated with `O=C1OC(c2ccc(Cl)cc2)(c2ccc(Cl)cc2)c2c1ccc1ccccc21`
a: > 100 µM (inactive)

q: Identify measured GI50 associated with `c1ccc2oc(-c3ccc(-c4nc5ccccc5o4)c4c3CC4)nc2c1`
a: > 100 µM (inactive)

q: Identify measured GI50 associated with `CNC(=S)NN=C1NCCCN1`
a: > 100 µM (inactive)

q: Identify measured GI50 associated with C[C@]12CC[C@H](OC(=O)Cc3ccc(N(CCCl)CCCl)cc3)CC1CC[C@@H]1C2CC[C@]2(C)NC(=O)CCC12 (stereo not given in full)
a: 6.68 µM (inactive)

q: Identify measured GI50 associated with `N#Cc1sc2nc3c(c(-c4ccccc4)c2c1N)CCCC3`
a: > 100 µM (inactive)

q: Identify measured GI50 associated with CC1CC(NN(C)C)C2(C(N)=O)C(N)=NC(=O)C12C#N (stereo not given)
a: > 100 µM (inactive)

---

The entries below come with measured GI50 values attached.
Test system: XF498
Test: NCI tumour cell line growth inhibition, 48 h
The source made the active and inactive calls. No stated cut-off is given here; in the data, active = GI50 up to about 1.1 µM and inactive = higher.

Below are worked cases with known answers.
| Compound | Measured Property | Observed |
| --- | --- | --- |
| COc1ccc(CNc2cc(OC)cc(OC)c2)cc1 | GI50 | > 100 µM (inactive) |
| CCCCCCc1cc(C(=O)Nc2ccc(Cl)cc2)nc(S)n1 | GI50 | > 10 µM (inactive) |
| COc1ccc2c(c1)CC[C@@H]1C2CC[C@]2(C)C(=O)NC(=O)CC12 (stereo partly drawn) | GI50 | > 100 µM (inactive) |
| Cc1nc(C)c(C(=O)Nc2cccc3c2C(=O)NC3=O)cc1C(=O)Nc1cccc2c1C(=O)NC2=O | GI50 | > 100 µM (inactive) |
| N#CCC(=O)Nc1ccccc1O | GI50 | > 100 µM (inactive) |
| Nc1cc2c(C3OC(CO)C(O)C3O)n[nH]c2c(=S)[nH]1 (stereo not drawn) | GI50 | > 100 µM (inactive) |
| Cc1nc2sccn2c1C(=O)N/N=C1\SCC(=O)N1C | GI50 | > 100 µM (inactive) |

Here's the next entry for you.
q: Identify measured GI50 associated with CC(=O)OCC1OC(n2cc(I)c(=O)[nH]c2=O)C(OC(C)=O)C(OC(C)=O)C1OC(C)=O (stereo not drawn)
a: > 100 µM (inactive)

Origin of measurements: ChEMBL document CHEMBL1201862
